Tested on: SW480
Assay Name: cell viability (CellTiter-Glo) relative to plate median (fraction of plate median); higher = more viable cells
Condition: 5 µM; treatment time 24 h; reporter: 7TFP
// reported cell viability for each item listed
Output: the number by itself.

Task item: Name the recorded cell viability for CC1C[C@H]2CC(=O)[C@H]3CCCN4CCC[C@H]2[C@]34C1.[O-][Cl+3]([O-])([O-])O (stereo not given in full) .
Reply: 0.933

Task item: Name the recorded cell viability for C=C1C2CC[C@@]3(C)[C@H](c4ccoc4)OC(=O)C[C@]13O[C@H]1CC(=O)C(C)(C)[C@H](C(OC(C)=O)C(=O)OC)[C@@]21C (stereo not given in full) .
Reply: 1

Task item: Name the recorded cell viability for CN1C(=O)CCS(=O)(=O)C1c1ccc(Cl)cc1 (stereo not given) .
Reply: 0.946

Every entry's value here was drawn from the supplement of paper PMC6522484.
